The origin of these recorded values is patent US20230212289A1.

Assay target: CD3 (antigen of the binding affinity table of Example 1) (UniProt P07766)
Assay details: kinetic fit with two-state parameters; method not given
Parameter: ka2 (s⁻¹)
Entry rule: numbers only, all in s⁻¹.

H3L1 (antibody, V domains shown) VH: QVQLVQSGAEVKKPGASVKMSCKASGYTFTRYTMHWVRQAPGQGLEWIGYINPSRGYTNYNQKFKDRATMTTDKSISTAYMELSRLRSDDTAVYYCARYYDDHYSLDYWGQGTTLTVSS VL: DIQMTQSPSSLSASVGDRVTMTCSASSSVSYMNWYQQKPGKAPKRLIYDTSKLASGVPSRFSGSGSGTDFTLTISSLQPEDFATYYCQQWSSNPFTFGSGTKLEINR = 0.0229
H2L5 (antibody, V domains shown) VH: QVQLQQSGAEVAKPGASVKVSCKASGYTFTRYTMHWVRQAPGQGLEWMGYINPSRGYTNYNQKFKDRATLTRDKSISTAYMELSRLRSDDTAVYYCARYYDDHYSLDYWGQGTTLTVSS VL: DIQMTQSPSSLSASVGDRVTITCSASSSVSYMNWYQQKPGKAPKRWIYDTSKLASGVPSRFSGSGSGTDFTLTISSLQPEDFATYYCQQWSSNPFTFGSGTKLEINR = 0.0127
H4L5 (antibody, V domains shown) VH: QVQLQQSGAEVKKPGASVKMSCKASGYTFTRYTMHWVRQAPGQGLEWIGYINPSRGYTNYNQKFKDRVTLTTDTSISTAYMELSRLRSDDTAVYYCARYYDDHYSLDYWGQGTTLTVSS VL: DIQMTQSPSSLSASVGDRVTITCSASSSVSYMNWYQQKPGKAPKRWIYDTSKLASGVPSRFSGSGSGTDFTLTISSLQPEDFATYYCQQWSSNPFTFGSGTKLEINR = 0.0041
H2L1 (antibody, V domains shown) VH: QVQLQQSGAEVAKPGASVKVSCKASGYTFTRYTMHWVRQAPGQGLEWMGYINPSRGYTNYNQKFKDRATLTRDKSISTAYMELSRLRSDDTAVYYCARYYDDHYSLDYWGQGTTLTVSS VL: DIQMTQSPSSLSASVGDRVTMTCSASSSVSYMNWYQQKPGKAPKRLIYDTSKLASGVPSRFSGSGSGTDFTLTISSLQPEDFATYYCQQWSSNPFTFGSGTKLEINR = 0.026
H3L2 (antibody, V domains shown) VH: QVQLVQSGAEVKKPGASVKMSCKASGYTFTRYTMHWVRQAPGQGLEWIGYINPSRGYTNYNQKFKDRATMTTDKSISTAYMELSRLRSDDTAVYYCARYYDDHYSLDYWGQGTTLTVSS VL: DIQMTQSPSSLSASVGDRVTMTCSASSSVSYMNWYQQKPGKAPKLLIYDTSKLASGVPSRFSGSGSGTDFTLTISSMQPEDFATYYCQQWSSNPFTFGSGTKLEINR = 0.0234
H2L3 (antibody, V domains shown) VH: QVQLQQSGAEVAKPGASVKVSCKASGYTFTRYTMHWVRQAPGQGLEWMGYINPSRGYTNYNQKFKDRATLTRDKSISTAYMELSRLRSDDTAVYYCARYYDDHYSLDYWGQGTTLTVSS VL: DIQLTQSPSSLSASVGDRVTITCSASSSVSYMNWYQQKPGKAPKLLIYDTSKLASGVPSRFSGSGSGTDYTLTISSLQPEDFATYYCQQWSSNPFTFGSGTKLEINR = 0.0228
H4L2 (antibody, V domains shown) VH: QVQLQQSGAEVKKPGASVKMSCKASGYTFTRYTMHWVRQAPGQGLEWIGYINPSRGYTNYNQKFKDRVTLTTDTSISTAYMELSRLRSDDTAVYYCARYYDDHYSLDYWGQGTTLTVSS VL: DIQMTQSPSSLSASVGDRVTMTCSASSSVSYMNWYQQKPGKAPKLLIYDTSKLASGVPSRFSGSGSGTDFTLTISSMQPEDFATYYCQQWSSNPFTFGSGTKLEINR = 0.026

Report ka2 for H4L4 (antibody, V domains shown) VH: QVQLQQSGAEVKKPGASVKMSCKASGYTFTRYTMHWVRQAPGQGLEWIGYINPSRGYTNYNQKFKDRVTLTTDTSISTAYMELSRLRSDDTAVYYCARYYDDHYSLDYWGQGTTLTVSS VL: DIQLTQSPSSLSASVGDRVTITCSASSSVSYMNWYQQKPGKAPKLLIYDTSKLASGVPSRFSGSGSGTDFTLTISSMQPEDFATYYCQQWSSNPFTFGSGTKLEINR please. 0.0212
